Would you kindly list melting point for each of these molecules?
Counter-ions that a name gives are not always drawn.

Record summary for CC1CCC2(CC1)N=C(N)N=C(N)N2c1ccc(S(=O)(=O)Nc2nccs2)cc1 (stereo not shown) (as salt: HCl) : reported melting point = 243 to 245 °C

Record summary for N#CCc1nc(N)nc(Nc2ccc(S(N)(=O)=O)cc2)n1 : reported melting point = 284 to 286 °C

Record summary for NC1=NC2(CCCC2)NC(Nc2ccc(S(N)(=O)=O)cc2)=N1 : reported melting point = 264 to 266 °C

Record summary for NC1=NC2(CCCC2)N(c2ccc(S(=O)(=O)Nc3ccccn3)cc2)C(N)=N1 (as salt: HCl) : reported melting point = 221 to 223 °C

---

target: hCA IX (Homo sapiens); construct: made in house; assay: stopped-flow CO2 hydrase assay, hCA IX; type: biochemical; settings: hCA IX over off-target hCA II
ENDPOINT_NAME: Selectivity index (SI) II/IX
Write the number on its own, no unit after it.

Query NC1=NC2(CCCCC2)N(c2ccc(S(N)(=O)=O)cc2)C(N)=N1 on hCA IX (Homo sapiens); Selectivity index (SI) II/IX returned: 0.8

Query N#C/C(=C\c1ccccc1)c1nc(N)nc(Nc2ccc(S(N)(=O)=O)cc2)n1 [Compound 12a] on hCA IX (Homo sapiens); Selectivity index (SI) II/IX returned: 0.3

Query NC1=NC2(CCCC2)N(c2ccc(S(N)(=O)=O)cc2)C(N)=N1 on hCA IX (Homo sapiens); Selectivity index (SI) II/IX returned: 0.8

---

test system: Leukemia (SR); assay: NCI single dose SRB screen, SR; assay type: cell-based; conditions: 48 h, 10^−5 M single dose, read-out: GI% Leukemia (SR)
ENDPOINT_NAME: inhibition at 10 µM

Record summary for NC1=NC2(CCCC2)N(c2ccc(S(=O)(=O)Nc3ccccn3)cc2)C(N)=N1 : reported inhibition at 10 µM = ≤ 10%

Record summary for CC1(C)N=C(N)N=C(N)N1c1ccc(S(=O)(=O)Nc2ccccn2)cc1.Cl : reported inhibition at 10 µM = ≤ 10%

Record summary for N#C/C(=C\c1ccccc1)c1nc(N)nc(Nc2ccc(S(N)(=O)=O)cc2)n1 [Compound 12a] : reported inhibition at 10 µM = ≤ 10%

Record summary for CN(C)c1ccc(/C=C(\C#N)c2nc(N)nc(Nc3ccc(S(N)(=O)=O)cc3)n2)cc1 [Compound 12d] : reported inhibition at 10 µM = ≥ 50%

Record summary for NC1=NC2(CCCCC2)N(c2ccc(S(=O)(=O)Nc3ccccn3)cc2)C(N)=N1 : reported inhibition at 10 µM = ≤ 10%

Record summary for CC1CCC2(CC1)N=C(N)N=C(Nc1ccc(S(N)(=O)=O)cc1)N2 (stereo not drawn) : reported inhibition at 10 µM = ≤ 10%

Record summary for N#C/C(=C\c1ccc2c(c1)OCO2)c1nc(N)nc(Nc2ccc(S(N)(=O)=O)cc2)n1 [Compound 12e] : reported inhibition at 10 µM = 11%

Record summary for CC1CCC2(CC1)N=C(N)N=C(N)N2c1ccc(S(N)(=O)=O)cc1 (stereo not drawn) : reported inhibition at 10 µM = ≤ 10%

Record summary for N#C/C(=C\c1cccc(Br)c1)c1nc(N)nc(Nc2ccc(S(N)(=O)=O)cc2)n1 [Compound 12b] : reported inhibition at 10 µM = 14%

Record summary for NC1=NC2(CCCC2)N(c2ccc(S(N)(=O)=O)cc2)C(N)=N1 : reported inhibition at 10 µM = 13%

Record summary for NC1=NC2(CCCCC2)N(c2ccc(S(N)(=O)=O)cc2)C(N)=N1 : reported inhibition at 10 µM = ≤ 10%

Record summary for COc1ccc(/C=C(\C#N)c2nc(N)nc(Nc3ccc(S(N)(=O)=O)cc3)n2)cc1 [Compound 12c] : reported inhibition at 10 µM = 16%

Record summary for NC1=NC2(CCCCC2)N(c2ccc(S(=O)(=O)Nc3nccs3)cc2)C(N)=N1 : reported inhibition at 10 µM = ≤ 10%

Record summary for CC1CCC2(CC1)N=C(N)N=C(N)N2c1ccc(S(=O)(=O)Nc2nccs2)cc1 (stereo not drawn) : reported inhibition at 10 µM = ≤ 10%

Record summary for N#C/C(=C\c1ccc(F)cc1)c1nc(N)nc(Nc2ccc(S(N)(=O)=O)cc2)n1 [Compound 12f.] : reported inhibition at 10 µM = 11%

Record summary for NC1=NC2(CCCCCC2)N(c2ccc(S(=O)(=O)Nc3ccccn3)cc2)C(N)=N1 : reported inhibition at 10 µM = ≤ 10%

Record summary for CC1(C)N=C(N)N=C(N)N1c1ccc(S(N)(=O)=O)cc1 : reported inhibition at 10 µM = ≤ 10%

Record summary for CC1(C)N=C(N)N=C(Nc2ccc(S(N)(=O)=O)cc2)N1 : reported inhibition at 10 µM = ≤ 10%
